System: M14 melanoma
Assay: NCI-60 one-dose screen, 48 h (100 = growth as untreated, 0 = no growth, -100 = all killed)
Settings: 10 µM unless noted
About 83,000 compounds went through this panel and 20% of them were active in at least one assay; those are over-represented in the sample as a whole.
experimental endpoint: growth (%)
// units = %; emit number, no label

[Q] Field request: growth | item: CCCCCN(CCCCC)CC(O)c1cc(C)c2ccc3cc(C(C)C)ccc3c2c1 (stereo not given)
[A] 20.3

[Q] // next record O=C1c2ccccc2C(=O)c2c1cc1c(c2[N+](=O)[O-])OCO1
[A] 73.5

[Q] // next record CC1(C)CC(=O)c2c(nn(-c3ccc(Br)cc3)c2-c2cn(-c3ccccc3)nc2-c2cccnc2)C1
[A] 98.6

[Q] // next record Cn1cc(-c2ccc(-c3cn(C)c4ccc(Cl)cc34)[nH]2)c2cc(Cl)ccc21
[A] -75.2

[Q] // next record C=CCn1c(SCC(=O)Nc2ccc(/C(C)=N/O)cc2)nnc1-c1cc(-c2ccc(S(N)(=O)=O)cc2)nc2ccccc12
[A] 93.5
